assay: clinical; settings: human, in vivo, po
MEASURED QUANTITY: concentration at 2 h

item_smiles=CC(C)C[C@H](N)C(=O)O recorded_value="~300 µM"

Cited source: patent US5028622A
